Biological target: Receptor tyrosine-protein kinase erbB-2 (Homo sapiens)
Sequence (P04626 whole entry): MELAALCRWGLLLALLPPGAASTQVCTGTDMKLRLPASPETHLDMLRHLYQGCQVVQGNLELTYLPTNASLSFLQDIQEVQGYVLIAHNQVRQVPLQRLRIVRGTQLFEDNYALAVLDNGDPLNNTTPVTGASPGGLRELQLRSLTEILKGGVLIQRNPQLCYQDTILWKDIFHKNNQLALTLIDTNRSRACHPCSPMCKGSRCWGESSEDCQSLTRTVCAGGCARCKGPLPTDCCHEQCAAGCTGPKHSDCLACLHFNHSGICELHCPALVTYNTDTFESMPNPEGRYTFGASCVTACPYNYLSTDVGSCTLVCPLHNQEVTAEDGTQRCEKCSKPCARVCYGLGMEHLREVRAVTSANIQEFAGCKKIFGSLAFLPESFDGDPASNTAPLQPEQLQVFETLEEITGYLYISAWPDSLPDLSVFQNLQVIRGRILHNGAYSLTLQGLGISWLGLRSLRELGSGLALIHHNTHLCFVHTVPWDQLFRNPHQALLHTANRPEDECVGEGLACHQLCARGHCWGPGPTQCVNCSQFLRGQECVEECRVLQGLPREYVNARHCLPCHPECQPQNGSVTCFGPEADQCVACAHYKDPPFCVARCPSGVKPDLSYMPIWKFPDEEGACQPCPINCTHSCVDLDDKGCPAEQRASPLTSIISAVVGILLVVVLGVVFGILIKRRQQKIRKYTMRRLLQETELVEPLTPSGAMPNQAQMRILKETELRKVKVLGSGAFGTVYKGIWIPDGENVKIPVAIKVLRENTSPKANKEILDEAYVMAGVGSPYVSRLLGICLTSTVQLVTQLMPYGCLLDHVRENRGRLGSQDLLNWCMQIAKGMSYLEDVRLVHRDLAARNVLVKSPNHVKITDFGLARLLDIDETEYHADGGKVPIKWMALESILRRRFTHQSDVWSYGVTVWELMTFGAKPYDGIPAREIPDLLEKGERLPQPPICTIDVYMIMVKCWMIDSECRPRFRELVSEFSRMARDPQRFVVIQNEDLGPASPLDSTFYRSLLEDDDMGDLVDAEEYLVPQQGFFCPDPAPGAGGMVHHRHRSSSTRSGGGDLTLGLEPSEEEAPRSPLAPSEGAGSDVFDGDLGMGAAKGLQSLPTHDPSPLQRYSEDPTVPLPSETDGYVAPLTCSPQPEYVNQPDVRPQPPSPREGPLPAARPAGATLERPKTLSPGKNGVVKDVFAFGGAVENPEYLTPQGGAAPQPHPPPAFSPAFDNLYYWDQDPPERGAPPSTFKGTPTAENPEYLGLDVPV
pIC50: −log10 of the molar value.
readout.name: pIC50

* O=C1CSC(N/N=C/c2cc(Br)ccc2O)=N1 | 6.38

###

Target: Epidermal growth factor receptor (Homo sapiens)
Sequence (P00533 whole entry): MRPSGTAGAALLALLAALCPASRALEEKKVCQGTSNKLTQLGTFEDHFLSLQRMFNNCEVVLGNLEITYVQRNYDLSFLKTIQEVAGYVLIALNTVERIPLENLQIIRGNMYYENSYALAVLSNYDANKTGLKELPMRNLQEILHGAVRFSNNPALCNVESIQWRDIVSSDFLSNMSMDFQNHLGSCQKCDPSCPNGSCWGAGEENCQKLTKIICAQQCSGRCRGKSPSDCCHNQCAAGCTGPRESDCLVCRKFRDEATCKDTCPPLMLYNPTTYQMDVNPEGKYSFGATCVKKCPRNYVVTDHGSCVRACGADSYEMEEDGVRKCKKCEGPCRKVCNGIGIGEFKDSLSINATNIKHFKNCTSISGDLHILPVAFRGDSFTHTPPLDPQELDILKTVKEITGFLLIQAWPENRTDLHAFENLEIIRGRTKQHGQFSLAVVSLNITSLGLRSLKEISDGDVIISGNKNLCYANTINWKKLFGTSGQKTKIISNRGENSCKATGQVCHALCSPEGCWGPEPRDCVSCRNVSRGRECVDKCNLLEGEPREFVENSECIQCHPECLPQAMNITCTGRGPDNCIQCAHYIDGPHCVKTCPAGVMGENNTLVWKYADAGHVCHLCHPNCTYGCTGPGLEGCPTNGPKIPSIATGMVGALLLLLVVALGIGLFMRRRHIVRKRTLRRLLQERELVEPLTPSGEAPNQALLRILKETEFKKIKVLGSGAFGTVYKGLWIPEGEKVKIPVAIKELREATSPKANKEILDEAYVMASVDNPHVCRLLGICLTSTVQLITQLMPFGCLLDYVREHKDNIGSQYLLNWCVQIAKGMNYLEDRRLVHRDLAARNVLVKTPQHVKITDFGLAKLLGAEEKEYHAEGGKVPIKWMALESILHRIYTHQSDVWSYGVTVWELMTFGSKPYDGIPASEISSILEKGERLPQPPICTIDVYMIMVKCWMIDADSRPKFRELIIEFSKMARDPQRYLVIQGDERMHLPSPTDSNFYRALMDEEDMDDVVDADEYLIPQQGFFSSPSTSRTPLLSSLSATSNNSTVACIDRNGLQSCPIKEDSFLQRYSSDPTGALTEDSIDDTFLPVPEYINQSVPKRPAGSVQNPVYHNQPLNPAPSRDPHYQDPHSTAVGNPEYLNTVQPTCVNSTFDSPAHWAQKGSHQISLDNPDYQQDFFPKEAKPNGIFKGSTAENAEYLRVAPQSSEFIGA
The class of a record is decided solely by its measured IC50; consult category 1 (below 2 µM), category 2 (2 µM to below 20 µM), category 3 (20 µM or more)

- O=C1CSC(N/N=C/c2cccc(O)c2)=N1: category 2
- O=C1CSC(NN=C2CCCCCC2)=N1: category 3
- O=C1CSC(NN=C2CCCCC2)=N1: category 3
- O=C1CSC(N/N=C/c2cccc(Br)c2)=N1: category 2
- O=C1CSC(N/N=C/c2cc(Cl)cc(Cl)c2O)=N1: category 1
- O=C1CSC(NN=C2CCCC2)=N1: category 3
- COc1ccc(/C=N/NC2=NC(=O)CS2)cc1: category 2
- O=C1CSC(N/N=C/c2ccc(F)cc2)=N1: category 2
- O=C1CSC(N/N=C/c2ccc(Cl)cc2)=N1: category 1
- Cc1cccc(/C=N/NC2=NC(=O)CS2)c1: category 3

###

Target: UniProtKB P04626
Experiment: biochemical
Description: Inhibition of human cloned HER2 autophosphorylation expressed in baculovirus-infected Sf9 cells by solid-phase ELISA
pIC50: −log10 of the molar value.
readout.name: pIC50

* Cc1cccc(/C=N/NC2=NC(=O)CS2)c1 | 4.50
* O=C1CSC(N/N=C/c2ccc(O)cc2)=N1 | 5.16
* O=C1CSC(N/N=C/c2cccc(Cl)c2)=N1 | 4.84
* COc1cccc(/C=N/NC2=NC(=O)CS2)c1 | 4.34
* O=C1CSC(N/N=C/c2ccc(F)cc2)=N1 | 5.41
* O=C1CSC(N/N=C/c2cccc(F)c2)=N1 | 4.66
* O=C1CSC(N/N=C/c2ccc([N+](=O)[O-])cc2)=N1 | 5.07
* O=C1CSC(N/N=C/c2cccc(O)c2)=N1 | 4.56

###

Target: Receptor tyrosine-protein kinase erbB-2 (Homo sapiens)
Experiment: biochemical
List of IC50 values.
readout.name: IC50 (µM)

• Cc1ccc(/C=N/NC2=NC(=O)CS2)cc1 = 5.83
• O=C1CSC(N/N=C/c2ccc(Br)cc2)=N1 = 2.43
• O=C1CSC(NN=C2CCCCCC2)=N1 = 47
• O=C1CSC(N/N=C/c2cccc([N+](=O)[O-])c2)=N1 = 37.6
• COc1ccc(/C=N/NC2=NC(=O)CS2)cc1 = 9.17
• O=C1CSC(N/N=C/c2cc(F)ccc2O)=N1 = 3.59
• O=C1CSC(N/N=C/c2cc(Cl)ccc2O)=N1 = 1.78
• O=C1CSC(NN=C2CCCCCCC2)=N1 = 31
• O=C1CSC(N/N=C/c2cc(Cl)cc(Cl)c2O)=N1 = 4.51
• O=C1CSC(N/N=C/c2cccc(Br)c2)=N1 = 10.3
• O=C1CSC(N/N=C/c2cc(Br)cc(Br)c2O)=N1 = 3.73
• O=C1CSC(N/N=C/c2ccc(Cl)cc2)=N1 = 2.75
